- Test system: HL-60(TB) leukemia
- EXPERIMENT: NCI tumour cell line growth inhibition, 48 h
Assign Condition met to entries whose TGI meets or exceeds 40 µM; assign Condition not met to the rest.

COMPOUND: O=C(c1ccc(Cl)cc1)N(C(=O)N1CCC(c2ccccc2)CC1)c1ccccc1
ASSIGNED_LABEL: Condition met
//
COMPOUND: COC(=O)C(C#CCCCCC#CC(NC(=O)OCc1ccccc1)(C(=O)OC)C(F)(F)F)(NC(=O)OCc1ccccc1)C(F)(F)F (stereo unspecified)
ASSIGNED_LABEL: Condition met
//
COMPOUND: Nc1ccc2c(SCc3ccc([N+](=O)[O-])cc3)c3ccccc3nc2c1
ASSIGNED_LABEL: Condition not met
//
COMPOUND: CCOP(=O)(OCC)C(Nc1ccc(Br)cc1)c1cccc([N+](=O)[O-])c1 (stereo unspecified)
ASSIGNED_LABEL: Condition met
//
COMPOUND: COc1cc([C@@H]2c3cc4c(cc3[C@@H](OC(=O)c3ccc(N)cc3)C3COC(=O)[C@@H]32)OCO4)cc(OC)c1O (stereo partly specified)
ASSIGNED_LABEL: Condition not met
//
COMPOUND: Cc1ccc([N+](=O)[O-])cc1NC(=O)/C(=N/NC(=S)NN)C1SC(=S)NC1=O (stereo unspecified)
ASSIGNED_LABEL: Condition met
//
COMPOUND: COC1OC(CBr)C(OC(=O)c2ccccc2)C(O)C1Br (stereo unspecified)
ASSIGNED_LABEL: Condition met
//
COMPOUND: Clc1cc2c(cc1Cl)CC(NCCN1CCCC1)CC2 (stereo unspecified)
ASSIGNED_LABEL: Condition not met
//
COMPOUND: C=CCc1cccc2cc(C(=O)Nc3ccccc3)c(=N)oc12
ASSIGNED_LABEL: Condition met
